Values compiled from the kinase profiling compilation of Christmann-Franck et al. (2016).

# testSystem: NEK9 (human)
# methodNotes: radiometric filter-binding kinase assay, Kinase HotSpot
# studyConditions: compound 0.5 µM; ATP 10 µM
Entries and their measured residual activity follow.
endpointLabel: residual activity (%)

structureAsSmiles	endpointLabel	experimentalValue
CO[C@@H]1[C@H](N(C)C(=O)c2ccccc2)C[C@H]2O[C@]1(C)n1c3ccccc3c3c4c(c5c6ccccc6n2c5c31)C(=O)NC4	residual activity	64.4
CCCCc1c(-c2ccc(OC)cc2)[nH]c2nccnc12	residual activity	106
CS(=O)(=O)CCNCc1ccc(-c2ccc3ncnc(Nc4ccc(OCc5cccc(F)c5)c(Cl)c4)c3c2)o1	residual activity	100
Ic1cccc(CSc2nnc(-c3ccncc3)o2)c1	residual activity	99.2
NC(=O)c1cccc(-c2cc(Nc3ccc(OC(F)(F)F)cc3)ncn2)c1	residual activity	93.8
COc1cc(Nc2c(C#N)cnc3cc(OCCCN4CCN(C)CC4)c(OC)cc23)c(Cl)cc1Cl	residual activity	94
O=C1Nc2ccc(Br)cc2/C1=C\c1cc2c([nH]1)CCCC2	residual activity	85.6
CN(C)S(=O)(=O)c1ccc2c(c1)/C(=C/c1cc3c([nH]1)CCCC3)C(=O)N2	residual activity	93.2
N#C/C(=C\c1ccc(O)c(O)c1)C(=O)NCc1ccccc1	residual activity	97.2
N#Cc1c[nH]c2c[nH]/c(=N\Cc3cccnc3)cc2/c1=N\c1ccc(F)c(Cl)c1	residual activity	96.3
O=C1c2ccccc2-c2nc3nnnn3nc21	residual activity	119
COc1ccc(Cl)cc1NC(=O)Nc1cc(C)nc2ccccc12	residual activity	104
Fc1ccc(-c2nc3n(c2-c2ccncc2)CCS3)cc1	residual activity	102
C[C@@H]1CCN(C(=O)CC#N)C[C@@H]1N(C)c1ncnc2[nH]ccc12	residual activity	96.2
Cc1cccc(-c2nc(C(C)(C)C)[nH]c2-c2ccc3c(c2)OCO3)n1	residual activity	95.6
COc1ccc(S(=O)(=O)N(CCO)c2ccccc2CN(C)C/C=C/c2ccc(Cl)cc2)cc1	residual activity	91.9

====

Entries and their measured residual activity follow.
# testSystem: UniProt P04049
# Sequence (P04049 whole entry, looked up): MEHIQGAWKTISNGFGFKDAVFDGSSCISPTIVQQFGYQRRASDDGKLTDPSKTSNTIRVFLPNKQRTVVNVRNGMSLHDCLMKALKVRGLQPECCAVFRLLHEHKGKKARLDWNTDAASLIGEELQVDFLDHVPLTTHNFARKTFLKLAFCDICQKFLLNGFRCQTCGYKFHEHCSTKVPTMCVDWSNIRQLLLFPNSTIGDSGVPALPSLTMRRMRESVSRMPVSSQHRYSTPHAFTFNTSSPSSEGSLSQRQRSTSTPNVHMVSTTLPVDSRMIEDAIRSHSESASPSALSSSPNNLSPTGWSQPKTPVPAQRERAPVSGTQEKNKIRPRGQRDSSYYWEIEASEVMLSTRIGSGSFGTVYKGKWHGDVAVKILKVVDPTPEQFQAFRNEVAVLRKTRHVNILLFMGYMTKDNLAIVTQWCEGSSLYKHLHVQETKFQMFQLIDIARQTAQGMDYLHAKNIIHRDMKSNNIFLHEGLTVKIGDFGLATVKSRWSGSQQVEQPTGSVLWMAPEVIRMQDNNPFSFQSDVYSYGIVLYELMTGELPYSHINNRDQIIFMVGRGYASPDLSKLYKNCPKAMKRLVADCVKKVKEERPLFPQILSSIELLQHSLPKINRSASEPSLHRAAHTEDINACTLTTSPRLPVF
# methodNotes: radiometric filter-binding kinase assay, Kinase HotSpot
# studyConditions: compound 0.5 µM; ATP 10 µM
endpointLabel: residual activity (%)

structureAsSmiles	endpointLabel	experimentalValue
NC(=O)c1cccc(-c2cc(Nc3ccc(OC(F)(F)F)cc3)ncn2)c1	residual activity	105
O=C1Nc2ccc(Br)cc2/C1=C\c1cc2c([nH]1)CCCC2	residual activity	88.2
Ic1cccc(CSc2nnc(-c3ccncc3)o2)c1	residual activity	92.8
O=C1c2ccccc2-c2nc3nnnn3nc21	residual activity	76.1
C[C@@H]1CCN(C(=O)CC#N)C[C@@H]1N(C)c1ncnc2[nH]ccc12	residual activity	95.5
Fc1ccc(-c2nc3n(c2-c2ccncc2)CCS3)cc1	residual activity	91.1
COc1ccc(C(=O)Nc2sc3c(c2C(N)=O)CCCC3)cc1OC	residual activity	94.8
c1ccc2c(-c3ccncc3)c[nH]c2c1	residual activity	93.2
O=C1C(Cl)=C(N2C(=O)CCC2=O)C(=O)c2ccccc21	residual activity	93
CCCCc1c(-c2ccc(OC)cc2)[nH]c2nccnc12	residual activity	99.9
COc1cc2ncnc(Nc3ccc(Oc4ccccc4)cc3)c2cc1OC	residual activity	88.9
N#Cc1c[nH]c2c[nH]/c(=N\Cc3cccnc3)cc2/c1=N\c1ccc(F)c(Cl)c1	residual activity	90.9
O=C1NC(=O)c2c1c1c3ccccc3[nH]c1n1cncc21	residual activity	108
CS(=O)(=O)CCNCc1ccc(-c2ccc3ncnc(Nc4ccc(OCc5cccc(F)c5)c(Cl)c4)c3c2)o1	residual activity	85.9
CN(C)S(=O)(=O)c1ccc2c(c1)/C(=C/c1cc3c([nH]1)CCCC3)C(=O)N2	residual activity	97.7
O=C(c1cc2cc(O)ccc2[nH]1)c1cc2cc(O)ccc2[nH]1	residual activity	104
Cn1c2ccccc2c2c3c(c4c5ccccc5n(CCC#N)c4c21)CNC3=O	residual activity	111
COc1ccc2c(c1)c(C1=C(c3c[nH]c4ccccc34)C(=O)NC1=O)cn2CCCN(C)C	residual activity	99.3
Cc1cncc2cccc(S(=O)(=O)N3CCCN(C(=O)CN)C[C@H]3C)c12	residual activity	95.1
COc1ccc(Cl)cc1NC(=O)Nc1cc(C)nc2ccccc12	residual activity	94.8

====

# testSystem: RPS6KA2 KD1 KD2 (human) (UniProt Q15349)
# Sequence (Q15349 whole entry, looked up): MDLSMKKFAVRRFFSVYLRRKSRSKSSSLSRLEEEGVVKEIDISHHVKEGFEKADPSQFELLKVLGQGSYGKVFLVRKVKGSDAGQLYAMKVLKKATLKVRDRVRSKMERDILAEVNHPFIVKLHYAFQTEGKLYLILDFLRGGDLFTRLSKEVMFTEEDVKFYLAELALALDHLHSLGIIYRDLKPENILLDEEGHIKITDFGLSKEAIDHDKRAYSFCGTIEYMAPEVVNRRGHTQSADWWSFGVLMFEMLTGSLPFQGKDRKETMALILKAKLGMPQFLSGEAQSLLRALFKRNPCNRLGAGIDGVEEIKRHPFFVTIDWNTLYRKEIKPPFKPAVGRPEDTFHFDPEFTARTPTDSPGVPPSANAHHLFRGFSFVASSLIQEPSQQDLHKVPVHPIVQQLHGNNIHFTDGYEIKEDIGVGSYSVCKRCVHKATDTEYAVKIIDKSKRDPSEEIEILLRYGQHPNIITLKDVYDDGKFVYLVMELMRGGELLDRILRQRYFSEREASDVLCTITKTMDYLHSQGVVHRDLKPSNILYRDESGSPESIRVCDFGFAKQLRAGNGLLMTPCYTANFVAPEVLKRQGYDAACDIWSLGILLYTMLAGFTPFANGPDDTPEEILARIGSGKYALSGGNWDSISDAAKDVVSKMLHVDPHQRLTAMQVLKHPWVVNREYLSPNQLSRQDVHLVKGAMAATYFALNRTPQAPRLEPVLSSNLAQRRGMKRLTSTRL
# methodNotes: radiometric filter-binding kinase assay, Kinase HotSpot
# studyConditions: compound 0.5 µM; ATP 10 µM
endpointLabel: residual activity

structureAsSmiles	endpointLabel	experimentalValue
CN(C)c1ccc(/C=C2\C(=O)Nc3ccccc32)cc1	residual activity	89.1%
O=C1NC(=O)c2c1c1c3ccccc3[nH]c1n1cncc21	residual activity	32.7%
COc1ccc(Cl)cc1NC(=O)Nc1cc(C)nc2ccccc12	residual activity	99.8%
Ic1cccc(CSc2nnc(-c3ccncc3)o2)c1	residual activity	101%
C[C@@H]1CCN(C(=O)CC#N)C[C@@H]1N(C)c1ncnc2[nH]ccc12	residual activity	89.7%

====

# testSystem: JAK2 JH1 JH2 (human)
# methodNotes: radiometric filter-binding kinase assay, Kinase HotSpot
# studyConditions: compound 0.5 µM; ATP 10 µM
Entries and their measured residual activity follow.
endpointLabel: residual activity

structureAsSmiles	endpointLabel	experimentalValue
CC(C)(C)c1cc(C=C(C#N)C#N)cc(Br)c1O	residual activity	107%
O=C1NC(=O)c2c1c1c3ccccc3[nH]c1n1cncc21	residual activity	117%
Cc1cncc2cccc(S(=O)(=O)N3CCCN(C(=O)CN)C[C@H]3C)c12	residual activity	93.9%
CN(C)CCCn1cc(C2=C(c3c[nH]c4ccccc34)C(=O)NC2=O)c2ccccc21	residual activity	93.9%
COc1cc2ncnc(Nc3ccc(OCc4ccccc4)cc3)c2cc1OC	residual activity	94.3%
COc1ccc2c(c1)c(C1=C(c3c[nH]c4ccccc34)C(=O)NC1=O)cn2CCCN(C)C	residual activity	97.5%
COc1ccc2c(c1)/C(=C/c1cnc[nH]1)C(O)=N2	residual activity	88.9%
CCCCc1c(-c2ccc(OC)cc2)[nH]c2nccnc12	residual activity	77.9%
O=C1c2ccccc2-c2nc3nnnn3nc21	residual activity	82.6%

====

# testSystem: NEK4 (human) (UniProt P51957)
# Sequence (P51957 whole entry, looked up): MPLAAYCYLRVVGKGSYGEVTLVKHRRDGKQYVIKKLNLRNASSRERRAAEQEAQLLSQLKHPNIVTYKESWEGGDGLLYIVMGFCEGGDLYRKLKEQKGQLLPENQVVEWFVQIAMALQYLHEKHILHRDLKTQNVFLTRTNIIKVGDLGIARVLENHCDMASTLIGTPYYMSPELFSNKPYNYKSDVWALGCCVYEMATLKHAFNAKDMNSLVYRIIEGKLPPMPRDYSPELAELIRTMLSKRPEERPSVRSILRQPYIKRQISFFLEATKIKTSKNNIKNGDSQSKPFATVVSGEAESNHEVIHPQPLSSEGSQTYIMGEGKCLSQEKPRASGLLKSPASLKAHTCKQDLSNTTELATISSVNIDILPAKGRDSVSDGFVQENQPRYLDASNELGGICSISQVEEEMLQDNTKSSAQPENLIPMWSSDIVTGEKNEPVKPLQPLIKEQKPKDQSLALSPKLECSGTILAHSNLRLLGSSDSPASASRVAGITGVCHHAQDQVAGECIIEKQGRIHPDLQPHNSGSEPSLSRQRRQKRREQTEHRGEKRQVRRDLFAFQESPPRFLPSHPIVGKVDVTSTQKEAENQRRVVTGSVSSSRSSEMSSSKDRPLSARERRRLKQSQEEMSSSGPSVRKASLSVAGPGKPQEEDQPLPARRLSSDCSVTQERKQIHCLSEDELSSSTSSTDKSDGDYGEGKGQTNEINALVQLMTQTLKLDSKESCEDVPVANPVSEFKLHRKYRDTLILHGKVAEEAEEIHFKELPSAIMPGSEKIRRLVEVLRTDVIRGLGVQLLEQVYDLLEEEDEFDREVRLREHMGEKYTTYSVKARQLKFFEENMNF
# methodNotes: radiometric filter-binding kinase assay, Kinase HotSpot
# studyConditions: compound 0.5 µM; ATP 10 µM
endpointLabel: residual activity (%)

structureAsSmiles	unitTag	experimentalValue
O=C1c2ccccc2-c2nc3nnnn3nc21	%	96.1
COc1cc(Nc2c(C#N)cnc3cc(OCCCN4CCN(C)CC4)c(OC)cc23)c(Cl)cc1Cl	%	32.6
COc1cc2ncnc(Nc3ccc(OCc4ccccc4)cc3)c2cc1OC	%	86.9
Cn1c2ccccc2c2c3c(c4c5ccccc5n(CCC#N)c4c21)CNC3=O	%	49.1
N#C/C(=C\c1ccc(O)c(O)c1)C(=O)NCc1ccccc1	%	98.6
Ic1cccc(CSc2nnc(-c3ccncc3)o2)c1	%	93.7

====

Entries and their measured residual activity follow.
# testSystem: MAP3K2 (human)
# methodNotes: radiometric filter-binding kinase assay, Kinase HotSpot
# studyConditions: compound 0.5 µM; ATP 10 µM

structureAsSmiles	residual activity, %
O=C1Nc2ccc(Br)cc2/C1=C\c1cc2c([nH]1)CCCC2	93.6
COc1ccc(Cl)cc1NC(=O)Nc1cc(C)nc2ccccc12	98
Cc1cccc(-c2nc(C(C)(C)C)[nH]c2-c2ccc3c(c2)OCO3)n1	99.9
Cc1cncc2cccc(S(=O)(=O)N3CCCN(C(=O)CN)C[C@H]3C)c12	92.1
NC(=O)c1cccc(-c2cc(Nc3ccc(OC(F)(F)F)cc3)ncn2)c1	79.5
C[C@@H]1CCN(C(=O)CC#N)C[C@@H]1N(C)c1ncnc2[nH]ccc12	123
COc1cc2ncnc(Nc3ccc(Oc4ccccc4)cc3)c2cc1OC	102
CN(C)S(=O)(=O)c1ccc2c(c1)/C(=C/c1cc3c([nH]1)CCCC3)C(=O)N2	37
CCCCc1c(-c2ccc(OC)cc2)[nH]c2nccnc12	90.9
Cn1c2ccccc2c2c3c(c4c5ccccc5n(CCC#N)c4c21)CNC3=O	2.96

====

# testSystem: BMX (human)
# methodNotes: radiometric filter-binding kinase assay, Kinase HotSpot
# studyConditions: compound 0.5 µM; ATP 10 µM
Entries and their measured residual activity follow.

structureAsSmiles	testSystem	residual activity [%]
COc1cc2ncnc(Nc3ccc(OCc4ccccc4)cc3)c2cc1OC	BMX (human)	89.7
CN(C)CCCn1cc(C2=C(c3c[nH]c4ccccc34)C(=O)NC2=O)c2ccccc21	BMX (human)	101
N#C/C(=C\c1ccc(O)c(O)c1)C(=O)NCc1ccccc1	BMX (human)	88.8
CO[C@@H]1[C@H](N(C)C(=O)c2ccccc2)C[C@H]2O[C@]1(C)n1c3ccccc3c3c4c(c5c6ccccc6n2c5c31)C(=O)NC4	BMX (human)	32

====

# testSystem: CDK1 CCNB1 (human) (UniProt P06493+P14635)
# Sequence (P06493 whole entry, looked up): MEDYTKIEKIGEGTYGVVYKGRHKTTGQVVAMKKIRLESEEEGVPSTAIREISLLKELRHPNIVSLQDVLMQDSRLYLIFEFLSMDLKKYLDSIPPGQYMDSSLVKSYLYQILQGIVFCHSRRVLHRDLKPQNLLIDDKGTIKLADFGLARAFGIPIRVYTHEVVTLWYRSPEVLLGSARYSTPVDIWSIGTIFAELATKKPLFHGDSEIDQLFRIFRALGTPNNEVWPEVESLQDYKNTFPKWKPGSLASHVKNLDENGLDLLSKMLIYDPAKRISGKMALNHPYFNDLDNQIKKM
# Sequence (P14635 whole entry, looked up): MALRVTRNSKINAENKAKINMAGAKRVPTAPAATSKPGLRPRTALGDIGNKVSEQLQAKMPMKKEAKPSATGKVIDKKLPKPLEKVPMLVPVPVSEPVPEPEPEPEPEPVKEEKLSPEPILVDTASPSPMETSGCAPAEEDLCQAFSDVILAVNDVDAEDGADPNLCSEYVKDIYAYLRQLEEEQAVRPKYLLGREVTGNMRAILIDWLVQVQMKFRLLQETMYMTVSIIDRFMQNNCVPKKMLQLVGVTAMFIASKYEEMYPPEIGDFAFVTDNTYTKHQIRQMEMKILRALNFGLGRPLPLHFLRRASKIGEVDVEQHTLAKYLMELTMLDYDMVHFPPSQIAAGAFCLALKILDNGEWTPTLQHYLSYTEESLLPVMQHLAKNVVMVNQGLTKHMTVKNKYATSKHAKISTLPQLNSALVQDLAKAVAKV
# methodNotes: radiometric filter-binding kinase assay, Kinase HotSpot
# studyConditions: compound 0.5 µM; ATP 10 µM
Please mark Criterion met if the recorded residual activity is equal to or greater than 90%, and Criterion not met if it falls below.

structureAsSmiles	categoryLabel
COc1cc2ncnc(Nc3ccc(Oc4ccccc4)cc3)c2cc1OC	Criterion not met
O=C1C(Cl)=C(N2C(=O)CCC2=O)C(=O)c2ccccc21	Criterion met
Cc1cncc2cccc(S(=O)(=O)N3CCCN(C(=O)CN)C[C@H]3C)c12	Criterion met
COc1cc(Nc2c(C#N)cnc3cc(OCCCN4CCN(C)CC4)c(OC)cc23)c(Cl)cc1Cl	Criterion met
c1ccc2c(-c3ccncc3)c[nH]c2c1	Criterion met
O=C(c1cc2cc(O)ccc2[nH]1)c1cc2cc(O)ccc2[nH]1	Criterion not met
CN(C)S(=O)(=O)c1ccc2c(c1)/C(=C/c1cc3c([nH]1)CCCC3)C(=O)N2	Criterion not met
COc1ccc(S(=O)(=O)N(CCO)c2ccccc2CN(C)C/C=C/c2ccc(Cl)cc2)cc1	Criterion met
O=C1c2ccccc2-c2n[nH]c3cccc1c23	Criterion not met
Cc1cn(-c2cc(NC(=O)c3ccc(C)c(Nc4nccc(-c5cccnc5)n4)c3)cc(C(F)(F)F)c2)cn1	Criterion met
O=C1c2ccccc2-c2nc3nnnn3nc21	Criterion not met
CC(C)(C)c1cc(C=C(C#N)C#N)cc(Br)c1O	Criterion not met
O=C1NC(=O)c2c1c1c3ccccc3[nH]c1n1cncc21	Criterion not met
COc1ccc(C(=O)Nc2sc3c(c2C(N)=O)CCCC3)cc1OC	Criterion met
